Measured MCHC accompanies every entry in the list below.
# Species on record: Rattus norvegicus
# Experiment: Open TG-GATES - Regimen: Daily Repeat
# Assay type: toxicity, organism-based, Sprague-Dawley
# Parameters: regimen Daily Repeat, gender Male, age 6 weeks
# Condition Label: in vivo, po, 300 mg/kg, 72 h, tissue Blood, route gavage, dose level Middle, time 3 day
Quantity Kind: MCHC (%)

>>> numeric_readout("CNC(=C[N+](=O)[O-])NCCSCc1ccc(CN(C)C)o1")
34.3
>>> numeric_readout("CN/C(=N/CCSCc1nc[nH]c1C)NC#N")
33.6
>>> numeric_readout("COC(=O)C1=C(C)NC(C)=C(C(=O)OC)C1c1ccccc1[N+](=O)[O-]")
32.3
>>> numeric_readout("O=C(OC[C@H]1O[C@@H](OC(=O)c2cc(O)c(O)c(OC(=O)c3cc(O)c(O)c(O)c3)c2)[C@H](OC(=O)c2cc(O)c(O)c(OC(=O)c3cc(O)c(O)c(O)c3)c2)[C@@H](OC(=O)c2cc(O)c(O)c(OC(=O)c3cc(O)c(O)c(O)c3)c2)[C@@H]1OC(=O)c1cc(O)c(O)c(OC(=O)c2cc(O)c(O)c(O)c2)c1)c1cc(O)c(O)c(OC(=O)c2cc(O)c(O)c(O)c2)c1")
33.3
>>> numeric_readout("Cc1nnc2n1-c1ccc(Cl)cc1C(c1ccccc1Cl)=NC2")
33.4

Ref: ChEMBL document CHEMBL3885861
